# assay procedure: AUC (0 to 4 hrs) in mouse at 20 mg/kg
# Assay type: ADME, organism-based
# Parameters: time < 4 hr, dose 20 mg/kg
# run parameters: plasma
readout kind: AUC(0-t) at 4 h (µM·h)

Cc1cc(N2CCOCC2)cc2[nH]c(-c3c(NC[C@@H](O)c4cccc(Cl)c4)cc[nH]c3=O)nc12 : 50

(a) Cc1cc(N2CCNCC2)cc2[nH]c(-c3c(NC[C@@H](O)c4cccc(Cl)c4)cc[nH]c3=O)nc12
(b) Cc1cc(N2CCN(C)CC2)cc2[nH]c(-c3c(NC[C@@H](O)c4cccc(Cl)c4)cc[nH]c3=O)nc12
Record comparison, field AUC(0-t) at 4 h: mark the lower of a and b . Identify your pick by its label.
b
(b: 3.4 µM·h, a: 26.5 µM·h)

---

# assay procedure: Total clearance in mouse at 5 mg/kg, iv and 75 mg/kg, po
# Type: ADME, organism-based
# run parameters: in vivo
readout kind: clearance (L/h/kg)
Give just the number in L/h/kg; leave the unit off.

Tell me measured clearance for COCCN1CCN(c2cc(C)c3nc(-c4c(NC[C@@H](O)c5cccc(Cl)c5)cc[nH]c4=O)[nH]c3c2)CC1 please.
1.51

---

# assay procedure: Oral bioavailability in mouse at 75 mg/kg
# Assay type: ADME, organism-based
# run parameters: in vivo
readout kind: bioavailability (%)
Give just the number in %; leave the unit off.

State its bioavailability: COCCN1CCN(c2cc(C)c3nc(-c4c(NC[C@@H](O)c5cccc(Cl)c5)cc[nH]c4=O)[nH]c3c2)CC1
26

---

# assay procedure: Volume of distribution at steady state in mouse at 5 mg/kg, iv and 75 mg/kg, po
# Type: ADME, organism-based
# run parameters: in vivo, read-out: Vdss
readout kind: Vd (L/kg)
Write the answer as a number in L/kg, unit excluded.

// Input: COCCN1CCN(c2cc(C)c3nc(-c4c(NC[C@@H](O)c5cccc(Cl)c5)cc[nH]c4=O)[nH]c3c2)CC1 . Output its Vd only.
4.9

---

# assay procedure: Total clearance in rat at 5 mg/kg, iv and 75 mg/kg, po
# Format: ADME, organism-based
# run parameters: in vivo
readout kind: clearance (mL/min/kg)
Entry rule: numbers only, all in mL/min/kg.

Consider the molecule COCCN1CCN(c2cc(C)c3nc(-c4c(NC[C@@H](O)c5cccc(Cl)c5)cc[nH]c4=O)[nH]c3c2)CC1 and give its recorded clearance.
27.8

---

# assay procedure: AUC (0 to 4 hrs) in mouse at 20 mg/kg
# Type: ADME, organism-based
# Set-up: time < 4 hr, dose 20 mg/kg
# run parameters: plasma
readout kind: AUC(0-t) at 4 h (µM·h)

Below are worked cases with known answers.
Cc1cc(N2CCN(C(=O)OC(C)(C)C)CC2)cc2[nH]c(-c3c(NC[C@@H](O)c4cccc(Cl)c4)cc[nH]c3=O)nc12 : 8.3
CCN1CCN(c2cc(C)c3nc(-c4c(NC[C@@H](O)c5cccc(Cl)c5)cc[nH]c4=O)[nH]c3c2)CC1 : 1

(a) Cc1cc(N2CCN(S(C)(=O)=O)CC2)cc2[nH]c(-c3c(NC[C@@H](O)c4cccc(Cl)c4)cc[nH]c3=O)nc12
(b) Cc1cc(N2CCN(CC#N)CC2)cc2[nH]c(-c3c(NC[C@@H](O)c4cccc(Cl)c4)cc[nH]c3=O)nc12
(c) Cc1cc(N2CCN(CCF)CC2)cc2[nH]c(-c3c(NC[C@@H](O)c4cccc(Cl)c4)cc[nH]c3=O)nc12
(d) Cc1cc(N2CCN(CC(=O)NCCF)CC2)cc2[nH]c(-c3c(NC[C@@H](O)c4cccc(Cl)c4)cc[nH]c3=O)nc12
(e) CC(=O)N1CCN(c2cc(C)c3nc(-c4c(NC[C@@H](O)c5cccc(Cl)c5)cc[nH]c4=O)[nH]c3c2)CC1
I would appreciate it if you could sort these 5 molecules by AUC(0-t) at 4 h, starting from the smallest number. Quick reminder: the answer is the labels in the order asked.
d, e, a, b, c
(d: 1.4 µM·h, e: 3.1 µM·h, a: 7.2 µM·h, b: 10.3 µM·h, c: 17.7 µM·h)
